# measured-on: T1, biotinylated human VWF cysteine knot (CK) domain construct (human, UniProt P04275 2724-2813, biotinylated in vitro (BirA) on the biotinylation tag; one N-glycan)
# T1 construct: Expressed in HEK293 EBNA cells; disulfide-linked homodimer; also called human VWF CK; human VWF CK domain; not shown: in vitro biotinylation tag, HRV-3C site and 3 VWF residues before the CK domain
# measurement-description: SPR, scFv captured via anti-SV5, CK domain injected, pH 5.5, apparent Kd;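 further: scFvs from crude yeast supernatants captured on chip-bound anti-SV5 antibody, Kd computed as koff divided by kon, dimeric CK construct likely makes affinity appear higher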
pKd reference
pKd is a log-scale quantity: -log10 of the concentration expressed in molar.

Known pKd results, listed for orientation:
9621_Lib8_scFv (scFv, VH-linker-VL; not shown: C-terminal 3xFLAG and SV5 tags) scFv: EVQLVESGGGLVQPGRSLRLSCAASGFSFSMYAMHWVRQAPGKGLEWVSAISPSGDATDYADSVEGRFTISRDNAKNSLYLQMNSLRAEDTAVYYCARGMQDYGHYYYYYMDVWGKGTTVTVSSSGGSTITSYNVYYTKLSSSGTDIQMTQSPSSLSASVGDRVTITCRASQDISTSLAWYQQKPGKAPKLLIYGASSLETGVPSRFSGSGSGTDFTLTISSLQPEDVATYYCQQGYIAPRTFGGGTKVEIK : 8.64
Lib1_P1_C6_scFv (scFv, VH-linker-VL; not shown: C-terminal 3xFLAG and SV5 tags) scFv: QVQLVQSGAEVKKPGASVKVSCKVSGYTFASHYIHWVRQAPGKGLEWMGGMDPATGQTIYAQKFQGRVTMTEDTSTDTAYMELSSLKSEDTAVYYCAKGDRSSWYEVLSFQHWGQGTLVTVSSSGGSTITSYNVYYTKLSSSGTDIQMTQSPSSVSASVGDRVTITCRASQGISTDLAWYQQKPGKAPKLLIYDASILQRGVPSRFSGSGSGTDFTLTISSLQPEDFANYYCQQVRTYPFTFGGGTKVEIK : 8.84

Read the next record carefully.
What measured pKd goes with Lib8_P4_C10_scFv (scFv, VH-linker-VL; not shown: C-terminal 3xFLAG and SV5 tags) scFv: EVQLVESGGGLVQPGRSLRLSCAASGFNFHNYDMHWVRQAPGKGLEWVSAISGSSDTMDYADSVEGRFTISRDNAKNSLYLQMNSLRAEDTAVYYCVRASWYGTFFDYWGQGTLVTVSSSGGSTITSYNVYYTKLSSSGTDIQMTQSPSSLSASVGDRVTITCRASQDISGWLAWYQQKPGKAPKLLIYAASSLQDGVPSRFSGSGSGTDFTLTISSLQPEDVATYYCQQSYRIPSTFGGGTKVEIK ? 9.31
